ASSAY_COMMENT: soluble fraction after stress (log2 fold change); higher = more stays soluble; pooled small domains, quantitative proteomics
CONDITION_DESCRIPTION: stress: 50 degC
REPORTED_ENDPOINT: soluble fraction (log2)
Number, no unit, nothing else.

Illustrative cases are given below, each with its answer.
{"columns": ["RESIDUE_SEQUENCE", "REPORTED_ENDPOINT", "VALUE"],
 "data": [
  ["HMRLGQLQSVEEPKFIEVHSGKQGDIGEQTIVEYEIDAKYATGDATINLKLLFRDGLFEIYNFNFSSEALL", "soluble fraction (log2)", 0.0828],
  ["HMRGAIKMAEEQMAGHKKIGSISGTAPTQGELEKKFAMAAAQMGARYYVITGLSNNNYAFGNADIY", "soluble fraction (log2)", -0.316],
  ["HMRGDEDTGVWPTPMKRAYIDSLLKGYPTGVTMIVKPPGASHTTKWMILDGANRARALRDFMNDEFMI", "soluble fraction (log2)", -0.163],
  ["HMVPEETKQFINQLNHGSLSIRMNAANNLEKLGLLAIPEIEAALPKAHGEAAFRLPRLLHALVLRETEYF", "soluble fraction (log2)", -0.00885],
  ["HMVEGMQFDRGYQSPYFVTNAEKMVAELDNPYILLVEKKISSMKELLPVLEPVAQQGKSLLIISEEVEG", "soluble fraction (log2)", -0.0564],
  ["HMTNISDYILEEYYKNVYPNDLNTKRIVIPNKYEEYAGKYTYITIARMVTYEHDAKKALKVLHQQAT", "soluble fraction (log2)", -0.287]
]}

Measured soluble fraction (log2) of HMAAHHIILEEREQLSVSGVEEVESFDENTIVMLTNRGTLIVRGEELHIEKLSLDGGDLRVEGSIDSLTYE : -0.274

Measured soluble fraction (log2) of HMEDPFLWVEKLGSSDWIEREESAEKLLEAGEASVEALRTALTHPDLEVRERVRELLSVISPL : -0.104
